ASSAYED_SYSTEM: T1, DLL3 on CT26.DLL3 cells (Homo sapiens (Human), UniProt Q9NYJ7 27-618)
T1 construct: CT26.DLL3 are engineered cells to express DLL3
T1 sequence: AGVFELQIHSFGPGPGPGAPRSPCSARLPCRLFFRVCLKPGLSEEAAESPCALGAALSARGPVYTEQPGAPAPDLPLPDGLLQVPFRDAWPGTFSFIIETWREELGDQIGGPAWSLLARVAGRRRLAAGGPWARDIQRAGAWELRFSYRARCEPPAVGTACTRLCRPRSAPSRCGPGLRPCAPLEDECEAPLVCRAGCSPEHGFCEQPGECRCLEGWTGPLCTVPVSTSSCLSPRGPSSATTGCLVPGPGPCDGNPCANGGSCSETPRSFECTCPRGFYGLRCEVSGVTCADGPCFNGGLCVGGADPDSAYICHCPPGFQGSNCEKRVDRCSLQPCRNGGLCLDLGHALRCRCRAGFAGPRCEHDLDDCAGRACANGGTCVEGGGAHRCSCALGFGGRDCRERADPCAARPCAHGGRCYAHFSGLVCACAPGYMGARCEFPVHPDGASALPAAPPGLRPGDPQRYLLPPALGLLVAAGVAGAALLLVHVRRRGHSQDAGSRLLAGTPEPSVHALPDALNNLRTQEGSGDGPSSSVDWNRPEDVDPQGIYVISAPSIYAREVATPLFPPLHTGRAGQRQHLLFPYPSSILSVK
ASSAY_PROTOCOL: [177Lu]Lu-labelled peptide on CT26.DLL3 cells, 1 h 37 C, gamma counter; A = %<=25
Description: Adherent cell studies: The cells were cultured in appropriate culture media (20 mL) in tissue culture treated T150 flasks at 37° C. and 5% C02. Adherent cells were detached (60-70% confluent) using 5 mL Versene at 37° C. for 3 minutes. […] Total uptake: Cells were incubated with 300 μL (0.8 μCi) of the incubation buffer (containing radiolabeled peptide [¹⁷⁷Lu]Lu-test peptide) for 1 hour at 37° C. […] The supernatant and washes were combined and counted together as “unbound fraction” in a gamma counter. […]
Bridges are numbered along the chain shown (N, C = ends). [ ]: non-standard residue; d: D form. The star is where a group is joined. DOTA = O=C(O)CN1CCN(CC(=O)O)CCN(CC(=O)*)CCN(CC(=O)O)CC1; 2Nal = N[C@@H](Cc1ccc2ccccc2c1)C(=O)O; Gly(4-THP) = N[C@H](C(=O)O)C1CCOCC1
MEASURED_PARAMETER: % Binding

Lookup: Any idea what its % Binding is? The binder is Ac-WT[Gly(4-THP)]CNN[2Nal]K(DOTA)DCWP-NH2 (disulfide 4-10; SMILES CC(=O)N[C@@H](Cc1c[nH]c2ccccc12)C(=O)N[C@H](C(=O)N[C@H](C(=O)N[C@H]1CSSC[C@@H](C(=O)N[C@@H](Cc2c[nH]c3ccccc23)C(=O)N2CCC[C@H]2C(N)=O)NC(=O)[C@H](CC(=O)O)NC(=O)[C@H](CCCCNC(=O)CN2CCN(CC(=O)O)CCN(CC(=O)O)CCN(CC(=O)O)CC2)NC(=O)[C@H](Cc2ccc3ccccc3c2)NC(=O)[C@H](CC(N)=O)NC(=O)[C@H](CC(N)=O)NC1=O)C1CCOCC1)[C@@H](C)O) [Cpd No. 317]
Found: ≤ 25%

All values here come from patent US20250049970A1.
